The measured values listed here are drawn from patent US20240018110A1.

# Lookup of reported Biodistribution, Bone (Avg) keyed by entry
- Tested on: LNCaP xenograft
- measurement_protocol: Biodistribution of 68Ga-labeled compounds in mice bearing LNCaP xenograft
- Assay type: in vivo
- test_settings: Bone, 1 h p.i.

- molecule: "O=C(O)CSCC(NC(=O)NC(Cc1ccc(NC(=O)C(Cc2c3ccccc3cc3ccccc23)NC(=O)C2CCC(CNC(=O)CN3CCN(CC(=O)O)CCN(CC(=O)O)CCN(CC(=O)O)CC3)CC2)cc1)C(=O)O)C(=O)O.[68Ga] (stereo not shown) [^68Ga-CCZ01188]"
  Biodistribution, Bone (Avg) [% ID/g]: 0.23
- molecule: "O=C(O)CSCC(NC(=O)NC(CNC(=O)CNC(=O)C(Cc1c2ccccc2cc2ccccc12)NC(=O)C1CCC(CNC(=O)CN2CCN(CC(=O)O)CCN(CC(=O)O)CCN(CC(=O)O)CC2)CC1)C(=O)O)C(=O)O.[68Ga] (stereo not shown) [68Ga-CCZ01194]"
  Biodistribution, Bone (Avg) [% ID/g]: 0.14
- molecule: "O=C(O)CCCC(NC(=O)NC(CCCONC(=O)C(Cc1c2ccccc2cc2ccccc12)NC(=O)C1CCC(CNC(=O)CN2CCN(CC(=O)O)CCN(CC(=O)O)CCN(CC(=O)O)CC2)CC1)C(=O)O)C(=O)O.[68Ga] (stereo not shown) [^68Ga-CCZ02018]"
  Biodistribution, Bone (Avg) [% ID/g]: 0.13
- molecule: "O=C(O)CCCC(NC(=O)NC(COCCNC(=O)C(Cc1c2ccccc2cc2ccccc12)NC(=O)C1CCC(CNC(=O)CN2CCN(CC(=O)O)CCN(CC(=O)O)CCN(CC(=O)O)CC2)CC1)C(=O)O)C(=O)O.[68Ga] (stereo not shown) [^68Ga-CCZ02011]"
  Biodistribution, Bone (Avg) [% ID/g]: 0.15
- molecule: "O=C(O)CCC[C@H](OC(=O)N[C@@H](CCCCNC(=O)[C@H](Cc1c2ccccc2cc2ccccc12)NC(=O)[C@H]1CC[C@H](CNC(=O)CCc2ccc(O)c(CN(CCN(CC(=O)O)Cc3cc(CCC(=O)O)ccc3O)CC(=O)O)c2)CC1)C(=O)O)C(=O)O.[68Ga] [^68Ga-AR-113-1]"
  Biodistribution, Bone (Avg) [% ID/g]: 0.34
- molecule: "O=C(O)CCCC(NC(=O)NC(CNC(=O)CNC(=O)C(Cc1c2ccccc2cc2ccccc12)NC(=O)C1CCC(CNC(=O)CN2CCN(CC(=O)O)CCN(CC(=O)O)CCN(CC(=O)O)CC2)CC1)C(=O)O)C(=O)O.[68Ga] (stereo not shown) [68Ga-CCZ01198]"
  Biodistribution, Bone (Avg) [% ID/g]: 0.07
- molecule: "O=C(O)CSCC(NC(=O)NC(Cc1cn(CCNC(=O)C(Cc2c3ccccc3cc3ccccc23)NC(=O)C2CCC(CNC(=O)CN3CCN(CC(=O)O)CCN(CC(=O)O)CCN(CC(=O)O)CC3)CC2)nn1)C(=O)O)C(=O)O.[68Ga] (stereo not shown) [^68Ga-CCZ01186]"
  Biodistribution, Bone (Avg) [% ID/g]: 0.13
